Source: paper PMC4362054

The entries below come with measured melting point values attached.

Past entries and their recorded results:
> print(dat)
                                   compound          value
1  CCCc1cn(C[C@H]2C[C@H](n3cc(C)c(=O)[nH]c3=O)ON2C)nn1 [14c]  168 to 170 °C
2  Cc1cn([C@H]2C[C@H](Cn3cc(CO)nn3)N(C)O2)c(=O)[nH]c1=O [14b]  198 to 201 °C
3  Cc1cn([C@H]2C[C@H](Cn3cc(-c4ccccc4)nn3)N(C)O2)c(=O)[nH]c1=O [14d]  233 to 235 °C

Input: Name the reported melting point value associated with the compound Cc1cn([C@H]2C[C@H](Cn3cc(-c4ccc(F)cc4)nn3)N(C)O2)c(=O)[nH]c1=O [14f]
Output: 230 to 233 °C

Input: Same again, this time with Cc1cn([C@@H]2C[C@H](Cn3cc(CCO)nn3)N(C)O2)c(=O)[nH]c1=O [13a]
Output: 215 to 218 °C

Input: Consider next the compound Cc1cn([C@@H]2C[C@H](Cn3cc(-c4ccc(F)cc4)nn3)N(C)O2)c(=O)[nH]c1=O [13f] in the same way.
Output: 269 to 271 °C

Input: Same read-out for Cc1cn([C@H]2C[C@H](Cn3cc(CCO)nn3)N(C)O2)c(=O)[nH]c1=O [14a] ?
Output: 202 to 206 °C

Input: Cc1cn([C@@H]2C[C@H](Cn3cc(CO)nn3)N(C)O2)c(=O)[nH]c1=O [13b] , same question.
Output: 205 to 210 °C

Input: # repeat for CCCCCc1ccc(-c2cn(C[C@H]3C[C@H](n4cc(C)c(=O)[nH]c4=O)ON3C)nn2)cc1 [14g]
Output: 245 to 248 °C

* * *

Listed here are compounds together with their documented CC50.
Assay: Inhibition of cell proliferation (MTT method), MDCK cells
Format: cell-based
Details: dog, MDCK cells (Madin-Darby canine kidney), concentration which inhibited cell growth by 50% vs control cultures, mean of three assays
The reply should contain only the number, in µM.

Consider the worked cases shown below.
> print(dat)
                                   compound  value
1  CCCc1cn(C[C@H]2C[C@@H](n3cc(C)c(=O)[nH]c3=O)ON2C)nn1 [13c]     20
2  Cc1cn([C@@H]2C[C@H](Cn3cc(-c4ccc(F)cc4)nn3)N(C)O2)c(=O)[nH]c1=O [13f]     10
3  CCCc1cn(C[C@H]2C[C@H](n3cc(C)c(=O)[nH]c3=O)ON2C)nn1 [14c]     20
4  Cc1cn([C@H]2C[C@H](Cn3cc(CCO)nn3)N(C)O2)c(=O)[nH]c1=O [14a]     20

Input: Name the recorded CC50 for COc1ccc(-c2cn(C[C@H]3C[C@@H](n4cc(C)c(=O)[nH]c4=O)ON3C)nn2)cc1 [13e] .
Output: 20

Input: And then Cc1cn([C@H]2C[C@H](Cn3cc(CO)nn3)N(C)O2)c(=O)[nH]c1=O [14b] , what is it?
Output: 20

Input: Same read-out for CCCCCc1ccc(-c2cn(C[C@H]3C[C@H](n4cc(C)c(=O)[nH]c4=O)ON3C)nn2)cc1 [14g] ?
Output: 10

Input: Could you do the same for Cc1cn([C@@H]2C[C@H](Cn3cc(-c4ccccc4)nn3)N(C)O2)c(=O)[nH]c1=O [13d] , please?
Output: 20

Input: Item: Cc1cn([C@@H]2C[C@H](Cn3cc(CCO)nn3)N(C)O2)c(=O)[nH]c1=O [13a]
Output: 10

Input: Same question for COc1ccc(-c2cn(C[C@H]3C[C@H](n4cc(C)c(=O)[nH]c4=O)ON3C)nn2)cc1 [14e] please.
Output: 20

Input: Note, next up: Cc1cn([C@H]2C[C@H](Cn3cc(-c4ccccc4)nn3)N(C)O2)c(=O)[nH]c1=O [14d]
Output: 5

Input: Another compound: Cc1cn([C@@H]2C[C@H](Cn3cc(CO)nn3)N(C)O2)c(=O)[nH]c1=O [13b]
Output: 30

Input: Consider next the compound Cc1cn([C@H]2C[C@H](Cn3cc(-c4ccc(F)cc4)nn3)N(C)O2)c(=O)[nH]c1=O [14f] in the same way.
Output: 20

Input: Lookup CCCCCc1ccc(-c2cn(C[C@H]3C[C@@H](n4cc(C)c(=O)[nH]c4=O)ON3C)nn2)cc1 [13g]
Output: 10

* * *

Test: Inhibition of cell proliferation (MTT method), BS-C-1 cells
Type: cell-based
Conditions: African green monkey, BS-C-1 cells (African green monkey kidney), concentration which inhibited cell growth by 50% vs control cultures, mean of three assays
readout_type: CC50 (µM)
// units = µM; emit number, no label

> print(dat)
                                   molecule  value
1  Cc1cn([C@@H]2C[C@H](Cn3cc(-c4ccccc4)nn3)N(C)O2)c(=O)[nH]c1=O [13d]     20
2  CCCc1cn(C[C@H]2C[C@@H](n3cc(C)c(=O)[nH]c3=O)ON2C)nn1 [13c]     20
3  Cc1cn([C@@H]2C[C@H](Cn3cc(-c4ccc(F)cc4)nn3)N(C)O2)c(=O)[nH]c1=O [13f]     10

Input: CC50 for Cc1cn([C@H]2C[C@H](Cn3cc(CCO)nn3)N(C)O2)c(=O)[nH]c1=O [14a] ?
Output: 20

* * *

Assay: Inhibition of cell proliferation (MTT method), Vero cells
Assay type: cell-based
Settings: African green monkey, Vero cells (African green monkey kidney), concentration which inhibited cell growth by 50% vs control cultures, mean of three assays
Reported values of CC50 for individual entries
Could you give the number and then its unit, please?

Please review the entries below; each comes with its answer.
> print(dat)
                                   molecule  value
1  COc1ccc(-c2cn(C[C@H]3C[C@H](n4cc(C)c(=O)[nH]c4=O)ON3C)nn2)cc1 [14e]  20 µM
2  Cc1cn([C@H]2C[C@H](Cn3cc(CO)nn3)N(C)O2)c(=O)[nH]c1=O [14b]  20 µM
3  Cc1cn([C@@H]2C[C@H](Cn3cc(-c4ccccc4)nn3)N(C)O2)c(=O)[nH]c1=O [13d]  20 µM
4  CCCCCc1ccc(-c2cn(C[C@H]3C[C@H](n4cc(C)c(=O)[nH]c4=O)ON3C)nn2)cc1 [14g]  10 µM
5  Cc1cn([C@@H]2C[C@H](Cn3cc(CO)nn3)N(C)O2)c(=O)[nH]c1=O [13b]  40 µM

The record that follows has no CC50 shown yet.
Input: # lookup: CC50 of Cc1cn([C@@H]2C[C@H](Cn3cc(CCO)nn3)N(C)O2)c(=O)[nH]c1=O [13a]
Output: 10 µM

* * *

Assay: Inhibition of cell proliferation (MTT method), HEp-2 cells
Format: cell-based, human
Settings: human, HEp-2 cells (human epidermoid carcinoma larynx), concentration which inhibited cell growth by 50% vs control cultures, mean of three assays, read-out: CC50 HEp2
readout_type: CC50
Express the reported value numerically, then name its unit.

Input: Which CC50 is reported for this molecule? CCCCCc1ccc(-c2cn(C[C@H]3C[C@H](n4cc(C)c(=O)[nH]c4=O)ON3C)nn2)cc1 [14g]
Output: 20 µM

Input: Continue with Cc1cn([C@@H]2C[C@H](Cn3cc(-c4ccccc4)nn3)N(C)O2)c(=O)[nH]c1=O [13d]
Output: 20 µM

Input: Same thing, different molecule: CCCCCc1ccc(-c2cn(C[C@H]3C[C@@H](n4cc(C)c(=O)[nH]c4=O)ON3C)nn2)cc1 [13g]
Output: 20 µM

Input: Next entry: Cc1cn([C@H]2C[C@H](Cn3cc(-c4ccccc4)nn3)N(C)O2)c(=O)[nH]c1=O [14d]
Output: 5 µM

* * *

CC50 for assorted compounds
Assay: Inhibition of cell proliferation (MTT method), HFF cells
Assay type: cell-based, human
Details: human, HFF cells (human foreskin fibroblasts), concentration which inhibited cell growth by 50% vs control cultures, mean of three assays
Respond with the bare value in µM.

> print(dat)
                                   compound  value
1  Cc1cn([C@@H]2C[C@H](Cn3cc(-c4ccc(F)cc4)nn3)N(C)O2)c(=O)[nH]c1=O [13f]     40
2  Cc1cn([C@@H]2C[C@H](Cn3cc(CCO)nn3)N(C)O2)c(=O)[nH]c1=O [13a]     10
3  Cc1cn([C@@H]2C[C@H](Cn3cc(CO)nn3)N(C)O2)c(=O)[nH]c1=O [13b]     30

Input: Requested field: CC50. Item: Cc1cn([C@H]2C[C@H](Cn3cc(CCO)nn3)N(C)O2)c(=O)[nH]c1=O [14a]
Output: 20

Input: Then what about the compound Cc1cn([C@H]2C[C@H](Cn3cc(CO)nn3)N(C)O2)c(=O)[nH]c1=O [14b] ?
Output: 20
